Target: T1, monkey B7H3-His (monkey)
T1 chain: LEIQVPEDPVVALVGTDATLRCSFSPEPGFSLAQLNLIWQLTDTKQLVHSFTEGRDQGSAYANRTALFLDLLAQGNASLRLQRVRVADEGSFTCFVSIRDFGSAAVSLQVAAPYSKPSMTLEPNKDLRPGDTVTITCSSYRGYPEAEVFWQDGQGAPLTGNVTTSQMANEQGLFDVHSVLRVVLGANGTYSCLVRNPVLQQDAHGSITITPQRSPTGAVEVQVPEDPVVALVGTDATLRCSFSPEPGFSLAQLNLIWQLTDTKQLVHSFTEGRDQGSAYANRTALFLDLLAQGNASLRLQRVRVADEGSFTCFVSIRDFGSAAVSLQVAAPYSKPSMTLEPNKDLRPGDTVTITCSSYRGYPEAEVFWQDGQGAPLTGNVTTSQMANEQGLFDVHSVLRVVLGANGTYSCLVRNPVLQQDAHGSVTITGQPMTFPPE
Test: phage ELISA, cross-species
ELISA signal vs 0.2: less than gives condition met; not less than gives condition not met.

For this binder, is ELISA signal lower than 0.2? RWD9 (VHH, Camel VHH; tag not described; also called camel antibody RWD9) VHH: EVQLVESGGGLVQPGGSLSVSCAASGFTFSVYWFYWVRQAPRQGLEWVSTIASNGSTYYSDSVKGRFTISRDNAKNTVYLQMNSLKPEDTAVYYCVSDPDYYSDYERAYKFWAQGTQVTVSS
condition not met

Given RWH5 (VHH, Camel VHH; tag not described; also called RWHS [sic]; camel antibody RWH5) VHH: AVQLVESGGGSVQAGGSLRLSCKASGYCMGWFRQAPGKEREGVAALNTEGGVTYYADSVKGRFSISRDNTNLYLQMNSLKPEDTAIYYCAADDRPTRCAVGSLYLPYTYRGQGTQVTVSS , is recorded ELISA signal strictly lower than 0.2?
condition not met

Given RWG8 (VHH, Camel VHH; tag not described; also called camel antibody RWG8) VHH: DVQLVESGGGLVQPGGSLRLSCAASGFTFSRYWMGWFRQAPGKGVEWVSTINSGGGSTYYADSVKGRFTISRDNAKNTLYLQLNNLKTEDTAMYYCAKEQWRTGSRGQGTQVTVSS , is recorded ELISA signal strictly lower than 0.2?
condition not met

hey, is ELISA signal for RWB12 (VHH, Camel VHH; tag not described; also called camel antibody RWB12) VHH: QVQLVESGGGSVQVGGSLRLSCAASGFTYNSYSVGWFRQAPGKEREGVAAINSGGSSTYYAASVKGRFTISRDNAKNTVYLQMNSLKPEDTAMYYCAARSPSPLTFQTRTLREDSYNYWGQGTQVTVSS lower than 0.2 or not?
condition not met

Input RWG4 (VHH, Camel VHH; tag not described; also called camel antibody RWG4) VHH: QVQLVQSGGGLVQPGGSLRLSCAASGFTFSVYWFYWVRQAPRQGLEWVSTIASNGSTYYSDSVKGRFTISRDNAKNTVYLQMNSLKPEDTAVYYCVSDPDYYSDYERAYKFWAQGTQVTVSS ; condition: ELISA signal strictly below 0.2. Does it hold?
condition met

Answer whether the binder RWH1 (VHH, Camel VHH; tag not described; also called camel antibody RWH1) VHH: AVQLVESGGGSVQAGGSLRLSCAASGMNLDNYVRGWLRQAPGSKCEFVSIIRRDGTTDYGDSVKGRFTISRDNAKNTVYLQMNSLKPDDTAVYYCAAIVVPRAAEYACDGLPYRGQGTQVTVSS has ELISA signal strictly less than 0.2
condition met

Does this binder meet the criterion ELISA signal < 0.2? RWB2 (VHH, Camel VHH; tag not described; also called camel antibody RWB2) VHH: AVQLVDSGGGSVQAGGSLRLSCVVSGYAFSTYDMAWFRQAPGEKCEWVSTVTNNGRTFYADSVKGRFIISRDNAKNILYLQMNSLKPEDTAVYSCAAAGVRWRCASGGNEGTQVTVSS
condition not met

Input RWC3 (VHH, Camel VHH; tag not described; also called camel antibody RWC3) VHH: QVQLVESGGGLVQPGGSLSVSCAASGFTFSVYWFYWVRQAPRQGLEWVSTIASNGSTYYSDSVKGRFTISRDNAKNTVYLQMNSLKPEDTAVYYCVSDPDYYSDYERAYKFWAQGTQVTVSS ; condition: ELISA signal strictly below 0.2. Does it hold?
condition not met

Please determine if RWD5 (VHH, Camel VHH; tag not described; also called RWDS [sic]; camel antibody RWD5) VHH: AVQLVESGGGLVQPGGSLSVSCAASGFTFSVYWFYWVRQAPRQGLEWVSTIASNGSTYYSDSVKGRFTISRDNAKNTVYLQMNSLKPEDTAVYYCVSDPDYYSDYEREYKFWAQGTQVTVSS is below 0.2 in terms of ELISA signal.
condition not met

State whether 0.2 exceeds ELISA signal recorded for RWC4 (VHH, Camel VHH; tag not described; also called camel antibody RWC4) VHH: EVQLVESGGGSVQAGGSLRLSCVASEDSTSAMCMGWFRQAPGKEREGVACINPTGEVTWYGDSVKGRFTISRDTVKKIVYLQMNSLKPEDTAMYYCAARVTYGGDWSTDTDYEYWGQGTQVTVSS .
condition not met
